Where do these numbers come from? They come from the nanobody polyreactivity screen of Harvey et al. (2022).

assay: yeast display, Sf9 membrane polyspecificity reagent, FACS + sequencing; frameworks hold sequencing errors
READOUT LABEL: polyreactivity (PSR sort gate)

| SEQUENCE | RESULT |
| --- | --- |
| QVQHVETGGGLVQAGGSLRLSCAASGFIFAEYAMGWYRQAPGKETEEVAAITSGGSTSYADSVKGRFTISRDNAKNTVYLQMNSLKPEDTAVYYCAATWYYLYNVWKHWYEYGYWGQGTQVTVSS | low polyreactivity |
| QVQLVESGGGLVQAGGSLRLSCSASGRTFDGYAMVWYRQAPGKEREMVASITRGGGSTYYADSVKGRFTISRDNAKNTVYLQMNSLKPEDTAVYYCATSDRQVKYDYWGQGTQVTVSS | low polyreactivity |
